Target or test system: T1, EGFRvIII extracellular domain (EGFR (1-29)-G-(298-645)-LESRGPF-Myc-NMHTG-6His) (human, UniProt P00533 298-641)
T1 construct: also called recombinant EGFRvIII; not shown: Myc tag
Assay notes: SPR (Biacore), antibody captured via anti-human Fc, antigen injected
Recorded measurements of pKd, one per entry
Please keep in mind that pKd is minus log10 of the molar concentration; only the number is needed.

Antibody D (AbD) (antibody, V domains shown, Full length IgG1) VH: EVQLQESGPGLVKPSQTLSLTCTVSGYSISSDFAWNWIRQPPGKGLEWMGYISYSGNTRYQPSLKSRITISRDTSKNQFFLKLNSVTAADTATYYCVTAGRGFPYWGQGTLVTVSS VL: DIQMTQSPSSMSVSVGDRVTITCHSSQDINSNLGWLQQKPGKSFKGLIYHGANLHDGVPSRFSGSGSGTDYTLTISSLQPEDFATYYCVQYAEFPWTFGGGTKLEIK | 8.21

Exercise: Tell me measured pKd for Antibody K (AbK) (antibody, V domains shown, Full length IgG1) VH: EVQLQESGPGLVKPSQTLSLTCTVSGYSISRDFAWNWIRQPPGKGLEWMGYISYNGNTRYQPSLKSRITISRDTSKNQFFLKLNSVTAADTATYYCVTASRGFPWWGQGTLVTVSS VL: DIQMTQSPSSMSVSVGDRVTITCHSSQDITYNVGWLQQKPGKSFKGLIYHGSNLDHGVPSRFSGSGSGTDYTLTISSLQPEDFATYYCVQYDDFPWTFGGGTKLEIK please.
Key: 9.22
